- measurement target: T1, Avi/HisMsIL18BPd (recombinant mouse IL-18BP with Avi and poly-His tags) (mouse, biotinylated with BirA on the Avi tag in some assays)
- T1 chain: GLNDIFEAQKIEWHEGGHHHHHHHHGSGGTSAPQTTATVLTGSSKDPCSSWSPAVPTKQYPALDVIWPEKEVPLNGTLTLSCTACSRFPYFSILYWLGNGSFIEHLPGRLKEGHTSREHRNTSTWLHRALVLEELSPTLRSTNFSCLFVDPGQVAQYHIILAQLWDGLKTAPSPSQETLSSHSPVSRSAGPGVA
- protocol details: cell-based or functional assay
observation type: EC50 of IFNγ release, mouse splenocytes (nM)
// units = nM; emit number, no label

Please review the following examples before continuing.
anti-IL-18BP antibody variant BP-04.16 (antibody, V domains shown) VH: QVQLVQSGAEVKKPGASVKVSCKASGYTFTDYDMHWVRQAPGQGLEWMGIISTYYGDVSYAQKKQGRVTMTRDKSTSTVYMELSSLRSEDTAVYYCARSGTYYYGTRESHAFDYWGQGTLVTVSS VL: DIQMTQSPSSVSASVGDRVTITCRASDNVYSNLAWYQQKPGKAPKLLIYGAISLADGVPSRFSGSGSGTDFTLTISSLQPEDFATYYCQHFWGNPYTFGQGTKLEIK    220
anti-IL-18BP antibody variant BP-04.06 (antibody, V domains shown) VH: QVQLVQSGAEVKKPGASVKVSCKASGYTFTDYDMHWVRQAPGQGLEWMGIISTYYGVVSYAQKKQGRVTMTRDKSTSTVYMELSSLRSEDTAVYYCARSGTYYYGTRESHPLDYWGQGTLVTVSS VL: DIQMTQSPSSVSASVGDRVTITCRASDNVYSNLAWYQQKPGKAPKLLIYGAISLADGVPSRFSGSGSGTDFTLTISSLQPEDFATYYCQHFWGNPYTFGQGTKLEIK    67.6

Pending binder:
The value of EC50 of IFNγ release, mouse splenocytes measured for the binder anti-IL-18BP antibody variant BP-04.04 (antibody, V domains shown) VH: QVQLVQSGAEVKKPGASVKVSCKASGYTFTDYDMHWVRQAPGQGLEWMGIISTYYGDVSYAQKKQGRVTMTRDKSTSTVYMELSSLRSEDTAVYYCARSGTYNYGTRESHPLDYWGQGTLVTVSS VL: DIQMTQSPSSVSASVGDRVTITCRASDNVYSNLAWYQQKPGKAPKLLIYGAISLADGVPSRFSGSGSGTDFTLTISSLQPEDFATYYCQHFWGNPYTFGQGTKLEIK turned out to be 31.8
